# credit: patent US20250296971A1

Quick reference: IC50 of the listed items.
Biological target: GIPR (CHO-K1-hGIPR cells) (Homo sapiens)
Construct: host or cells: CHO-K1
Sequence (P48546 22-466): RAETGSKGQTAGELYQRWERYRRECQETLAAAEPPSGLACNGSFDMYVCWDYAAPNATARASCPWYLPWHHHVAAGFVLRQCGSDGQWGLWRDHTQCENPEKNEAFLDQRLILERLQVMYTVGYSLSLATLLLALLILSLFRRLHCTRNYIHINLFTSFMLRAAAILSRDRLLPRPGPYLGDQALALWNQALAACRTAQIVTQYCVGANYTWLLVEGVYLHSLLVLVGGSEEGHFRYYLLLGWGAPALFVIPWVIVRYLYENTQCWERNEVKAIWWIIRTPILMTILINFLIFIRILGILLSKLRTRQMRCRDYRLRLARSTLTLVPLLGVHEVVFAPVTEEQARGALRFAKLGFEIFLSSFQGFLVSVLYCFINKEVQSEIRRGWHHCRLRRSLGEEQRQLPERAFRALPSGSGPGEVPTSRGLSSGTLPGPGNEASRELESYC
Assay: FACS binding assay
Details: competition with 20 nM GIP-057, 4° C. for 1 hour, read-out: pIC50 Category (converted)
*1 amine or outer side, *2 acyl side, *3 side chain or, on linkers, in order; H or OH if unused. Where a SMILES comes first, the peptide text is derived from it. Bridges are numbered along the chain shown (N, C = ends). [ ]: non-standard residue; d: D form. The star is where a group is joined. X5 = NC(=O)[C@H](CCCCNC(=O)CN1CCN(CC(=O)O)CCN(CC(=O)O)CCN(CC(=O)O)CC1)NC(=O)CCC(=O)NCCCOCCOCCOCCCN*; X3 = O=C(O)CN1CCN(CC(=O)O)CCN(CC(=O)NCCCOCCOCCOCCCN*)CCN(CC(=O)O)CC1; DOTA = O=C(O)CN1CCN(CC(=O)O)CCN(CC(=O)*)CCN(CC(=O)O)CC1; Trp(5-Cl) = N[C@@H](Cc1c[nH]c2ccc(Cl)cc12)C(=O)O; Pyridine(2,6-diCH2) = c1cc(C[*:1])nc(C[*:2])c1; 1Nal = N[C@@H](Cc1cccc2ccccc12)C(=O)O; mXylylene = c1cc(C[*:1])cc(C[*:2])c1; oXylylene = c1ccc(C[*:2])c(C[*:1])c1; X7 = c1cc(CSCCN[*:2])cc(C[*:1])c1; Hyp = O=C(O)[C@@H]1C[C@@H](O)CN1; Suc = O=C(CCC(=O)[*:2])[*:1]; Api = NC1(C(=O)O)CCNCC1; Thp = NC1(C(=O)O)CCOCC1; Aib = CC(C)(N)C(=O)O

Here is how some compounds turned out for IC50.
| compound | reported value |
| --- | --- |
| CC[C@H](C)[C@@H]1NC(=O)[C@H](CC(C)C)NC(=O)C2(CCOCC2)NC(=O)[C@@H](NC(=O)[C@@H](CC(C)C)NC(=O)[C@H](Cc2c[nH]c3ccccc23)NC(=O)[C@@H]2C[C@@H](O)CN2C(=O)[C@H](Cc2c[nH]c3ccc(Cl)cc23)NC(=O)[C@H](Cc2c[nH]c3ccccc23)NC(=O)[C@H](CC(=O)O)NC(C)=O)CSCc2cccc(n2)CSC[C@@H](C(N)=O)NC1=O [GIP-397] (Ac-DW[Trp(5-Cl)][Hyp]W[dL]C[Thp]LIC-NH2; linker 7-11 via Pyridine(2,6-diCH2)) | 0.01 to 0.0794 µM |
| CC(=O)N[C@@H](CC(=O)O)C(=O)N[C@@H](Cc1c[nH]c2ccccc12)C(=O)N[C@@H](Cc1c[nH]c2ccc(Cl)cc12)C(=O)N1C[C@H](O)C[C@H]1C(=O)N[C@@H](CCC(=O)O)C(=O)N[C@H](CC(C)C)C(=O)N[C@H]1CSCc2cccc(n2)CSC[C@@H](C(N)=O)NC(=O)[C@H](Cc2ccccc2)NC(=O)[C@H](CC(C)C)NC(=O)C2(CCN(C(=O)CN3CCN(CC(=O)O)CCN(CC(=O)O)CCN(CC(=O)O)CC3)CC2)NC1=O [GIP-393] (Ac-DW[Trp(5-Cl)][Hyp]E[dL]C[Api](DOTA)LFC-NH2; linker 7-11 via Pyridine(2,6-diCH2)) | 0.01 to 0.0794 µM |
| CC[C@H](C)[C@@H]1NC(=O)[C@@H](CC(C)C)NC(=O)[C@H](C)NC(=O)[C@@H](NC(=O)[C@H](CC(C)C)NC(=O)[C@H](CCC(=O)O)NC(=O)[C@@H]2CCCN2C(=O)[C@H](Cc2c[nH]c3ccccc23)NC(=O)[C@H](Cc2c[nH]c3ccccc23)NC(=O)[C@H](CC(=O)O)NC(=O)[C@H](Cc2ccc(O)cc2)NC(=O)[C@@H](N)CCSC)CSCc2ccccc2CSC[C@@H](C(N)=O)NC1=O [GIP-313] (H-MYDWWPELCA[dL]IC-NH2; linker 9-13 via oXylylene) | 0.1 to 0.794 µM |
| CC[C@H](C)[C@@H]1NC(=O)[C@H](CC(C)C)NC(=O)[C@H](C)NC(=O)[C@H](NC(=O)[C@H](CC(C)C)NC(=O)[C@H](CCC(=O)O)NC(=O)[C@@H]2CCCN2C(=O)[C@H](Cc2c[nH]c3ccccc23)NC(=O)[C@H](Cc2c[nH]c3ccccc23)NC(=O)[C@H](CC(=O)O)NC(=O)[C@H](Cc2ccc(O)cc2)NC(=O)[C@@H](N)CCSC)CSCc2cccc(c2)CSC[C@@H](C(N)=O)NC1=O [GIP-309] (H-MYDWWPEL[dC]ALIC-NH2; linker 9-13 via mXylylene) | 0.1 to 0.794 µM |
| CC[C@H](C)[C@@H]1NC(=O)[C@H](CC(C)C)NC(=O)C2(CCOCC2)NC(=O)[C@@H](NC(=O)[C@@H](CC(C)C)NC(=O)[C@H](CO)NC(=O)[C@@H]2C[C@@H](O)CN2C(=O)[C@H](Cc2c[nH]c3ccc(Cl)cc23)NC(=O)[C@H](Cc2c[nH]c3ccccc23)NC(=O)[C@H](CC(=O)O)NC(C)=O)CSCc2cccc(n2)CSC[C@@H](C(N)=O)NC1=O [GIP-384] (Ac-DW[Trp(5-Cl)][Hyp]S[dL]C[Thp]LIC-NH2; linker 7-11 via Pyridine(2,6-diCH2)) | < 0.01 µM |

Prompt: GET /values?readout=IC50&item= CC[C@H](C)[C@@H]1NC(=O)[C@H](CC(C)C)NC(=O)[C@@H](NC(=O)[C@H](CCC(=O)O)NC(=O)[C@@H](CC(C)C)NC(=O)[C@H](Cc2c[nH]c3ccc(Cl)cc23)NC(=O)[C@@H]2CCCN2C(=O)[C@H](CC(=O)O)NC(=O)[C@H](Cc2c[nH]c3ccccc23)NC(=O)CCC(=O)NCCCOCCOCCOCCCNC(=O)CN2CCN(CC(=O)O)CCN(CC(=O)O)CCN(CC(=O)O)CC2)CSCc2cccc(c2)CSCCNC(=O)C(C)(C)NC1=O [GIP-304] ({X3-Suc}-WDP[Trp(5-Cl)][dL]ECLI[Aib]; linker 7-C via X7)
Response: > 1 µM

Prompt: GET /values?readout=IC50&item= CC[C@H](C)[C@@H]1NC(=O)[C@H](CC(C)C)NC(=O)C(C)(C)NC(=O)[C@@H](NC(=O)[C@H](CC(C)C)NC(=O)[C@H](CCC(=O)O)NC(=O)[C@@H]2CCCN2C(=O)[C@H](Cc2cccc3ccccc23)NC(C)=O)CSCc2cccc(c2)CSC[C@@H](C(=O)NCCCOCCOCCOCCCNC(=O)CCC(=O)N[C@@H](CCCCNC(=O)CN2CCN(CC(=O)O)CCN(CC(=O)O)CCN(CC(=O)O)CC2)C(N)=O)NC1=O [GIP-298] (Ac-[1Nal]PELC[Aib]LIC-X5; linker 5-9 via mXylylene)
Response: > 1 µM

Prompt: GET /values?readout=IC50&item= CC[C@H](C)[C@@H]1NC(=O)[C@@H](CC(C)C)NC(=O)[C@H](C)NC(=O)[C@@H](NC(=O)[C@H](CC(C)C)NC(=O)[C@H](CCC(=O)O)NC(=O)[C@@H]2CCCN2C(=O)[C@H](Cc2c[nH]c3ccccc23)NC(=O)[C@H](Cc2c[nH]c3ccccc23)NC(=O)[C@H](CC(=O)O)NC(=O)[C@H](Cc2ccc(O)cc2)NC(=O)[C@@H](N)CCSC)CSCc2cccc(c2)CSC[C@@H](C(N)=O)NC1=O [GIP-330] (H-MYDWWPELCA[dL]IC-NH2; linker 9-13 via mXylylene)
Response: > 1 µM
